# TARGET: RORγ-LBD (Homo sapiens, UniProt P51449)
# Construct: made in house; host or cells: SF9 cells (baculovirus); used as diluted lysate
# Sequence (P51449 269-508 limits assumed): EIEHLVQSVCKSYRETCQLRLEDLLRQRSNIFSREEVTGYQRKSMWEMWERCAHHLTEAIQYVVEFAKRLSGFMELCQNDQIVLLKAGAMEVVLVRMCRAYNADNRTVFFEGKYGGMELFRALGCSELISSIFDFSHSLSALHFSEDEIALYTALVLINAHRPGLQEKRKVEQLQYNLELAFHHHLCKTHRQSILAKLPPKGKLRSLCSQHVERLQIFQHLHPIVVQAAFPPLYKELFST
# EXPERIMENT: RORγ-Ligand Binding Domain (LBD) TR-FRET Assay
# Assay type: biochemical
# CONDITION_INFO: RORγ-LBD TR-FRET
Answer each item with its documented EC50.

Input O=C(O)CC[C@H]1CN(S(=O)(=O)c2cccc(C(F)(F)F)c2)c2cc(/C=C/c3c[nH]nc3C(F)(F)F)ccc2O1 [Example 89BT] . Output EC50: > 10000 nM

Input CCc1nc(S(=O)(=O)N2C[C@H](CCC(=O)O)Oc3ccc(/C=C/c4c(F)cccc4Cl)cc32)c[nH]1 [Example 89DW] . Output EC50: > 10000 nM

Input CCn1cc(S(=O)(=O)N2C[C@H](CCC(=O)O)Oc3ccc(/C=C(\C)c4c(F)cccc4Cl)cc32)c(Cl)n1 [Example 86G] . Output EC50: < 500 nM

Input CCOc1nn(CC)cc1S(=O)(=O)N1C[C@H](CCC(=O)O)Oc2ccc(/C=C/c3c(C)cccc3F)cc21 [Example 89AG] . Output EC50: < 500 nM

Input CCOc1ncc(C(F)(F)F)cc1S(=O)(=O)N1C[C@H](CCC(=O)O)Oc2ccc(/C=C/c3c(OC)cccc3C(F)(F)F)cc21 [Example 89ET] . Output EC50: < 500 nM

Input CCOc1ncc(C(F)(F)F)cc1S(=O)(=O)N1C[C@H](CCC(=O)OC)Oc2ccc(/C=C/c3c(Cl)cccc3C(F)F)cc21 [Example 89EK] . Output EC50: < 500 nM

Input C/C(=C\c1ccc2c(c1)N(S(=O)(=O)c1ccc(C)c(C(F)(F)F)c1)C[C@H](CCC(=O)O)O2)c1c(F)cccc1Cl [Example 86AO] . Output EC50: < 500 nM

Input C/C(=C\c1ccc2c(c1)N(S(=O)(=O)c1cccc(OC(F)(F)F)c1)C[C@H](CCC(=O)O)O2)c1c(F)cccc1Cl [Example 86S] . Output EC50: < 500 nM

Input CC1(C)CCC(=Cc2ccc3c(c2)N(S(=O)(=O)c2cccc(C(F)(F)F)c2)C[C@H](CCC(=O)O)O3)CC1 [Example 95H] . Output EC50: < 500 nM

Input COC(=O)CC[C@H]1CN(S(=O)(=O)c2ccc(F)c(C(F)(F)F)c2)c2cc(/C=C(\C)c3c(F)cccc3Cl)ccc2O1 [Example 86B] . Output EC50: < 500 nM

Input Cn1nc(/C=C/c2ccc3c(c2)N(S(=O)(=O)c2cccc(C(F)(F)F)c2)C[C@H](CCC(=O)O)O3)c2c(Cl)cccc21 [Example 89BO] . Output EC50: < 500 nM

Input CCOc1sc(CC)nc1S(=O)(=O)N1C[C@H](CCC(=O)OC)Oc2ccc(/C=C(\C)c3c(F)cccc3Cl)cc21 [Example 72] . Output EC50: < 500 nM

Input C/C(=C\c1ccc2c(c1)N(S(=O)(=O)c1cccc(C(F)(F)F)c1)C[C@H](CCC(=O)O)O2)c1ccccc1C(F)(F)F [Example 86AG] . Output EC50: < 500 nM

Input C/C(=C\c1c(F)cccc1Cl)c1ccc2c(c1)N(S(=O)(=O)c1cccc(C(F)(F)F)c1)C[C@H](CCC(=O)O)O2 [Example 32] . Output EC50: < 500 nM

Input CCOc1nn(CC)cc1S(=O)(=O)N1C[C@H](CCC(=O)O)Oc2ccc(/C=C/c3nccnc3Cl)cc21 [Example 89M] . Output EC50: > 10000 nM

Input CCOc1nn(CC)cc1S(=O)(=O)N1C[C@H](CCC(=O)O)Oc2ccc(/C=C/c3c(F)cccc3C(F)(F)F)cc21 [Example 88] . Output EC50: < 500 nM

Input COC(=O)CC[C@H]1CN(S(=O)(=O)c2cc(F)cc(C(F)(F)F)c2)c2cc(/C=C(\C)c3c(F)cccc3Cl)ccc2O1 [Example 86AR] . Output EC50: < 500 nM

Input COC(=O)CC[C@H]1CN(S(=O)(=O)c2cccc(C(F)(F)F)c2)c2cc(/C=C(\C)c3ccccc3Cl)ccc2O1 [Example 86Z] . Output EC50: < 500 nM

Input COC(=O)CC[C@H]1CN(S(=O)(=O)c2cccc(C(F)(F)F)c2)c2cc(/C=C/c3c(Cl)cccc3C(C)(F)F)ccc2O1 [Example 89EW] . Output EC50: < 500 nM

Input CCOc1nn(CC)cc1S(=O)(=O)N1C[C@H](CCC(=O)O)Oc2ccc(/C=C/c3ccc(C#N)cc3)cc21 [Example 89DC] . Output EC50: > 10000 nM

Input O=C(O)CC[C@H]1CN(S(=O)(=O)c2cccc(OC(F)F)c2)c2cc(/C=C/c3ncccn3)ccc2O1 [Example 89G] . Output EC50: 500 to 5000 nM

Input CCOc1nn(CC)cc1S(=O)(=O)N1C[C@H](CCC(=O)OC)Oc2ccc(/C=C(\C)c3c(Cl)cccc3C(F)(F)F)cc21 [Example 86AX] . Output EC50: < 500 nM

Input O=C(O)CC[C@H]1CN(S(=O)(=O)c2cccc(OC(F)F)c2)c2cc(/C=C/c3ncccc3Cl)ccc2O1 [Example 89DT] . Output EC50: < 500 nM

Input O=C(O)CC[C@H]1CN(S(=O)(=O)c2cccc(OC(F)F)c2)c2cc(/C=C/c3c(Cl)cccc3C(F)(F)F)ccc2O1 [Example 89DQ] . Output EC50: < 500 nM

Input O=C(O)CC[C@H]1CN(S(=O)(=O)c2cc(C(F)(F)F)cnc2OCCO)c2cc(CC3CCCCC3)ccc2O1 [Example 95D] . Output EC50: < 500 nM

Input COC(=O)CC[C@H]1CN(S(=O)(=O)c2cccc(OC(F)F)c2)c2cc(/C=C/c3ccccn3)ccc2O1 [Example 89D] . Output EC50: < 500 nM

Origin of the recorded values: patent US9896441B2
